Target: human Y5 receptor (hNPY-5) (Homo sapiens)
Construct: expressed in transfected cells; host or cells: mouse fibroblast LM(tk-) cells, e.g. L-hY5-7 (ATCC CRL-11995)
Sequence (Q15761 whole entry): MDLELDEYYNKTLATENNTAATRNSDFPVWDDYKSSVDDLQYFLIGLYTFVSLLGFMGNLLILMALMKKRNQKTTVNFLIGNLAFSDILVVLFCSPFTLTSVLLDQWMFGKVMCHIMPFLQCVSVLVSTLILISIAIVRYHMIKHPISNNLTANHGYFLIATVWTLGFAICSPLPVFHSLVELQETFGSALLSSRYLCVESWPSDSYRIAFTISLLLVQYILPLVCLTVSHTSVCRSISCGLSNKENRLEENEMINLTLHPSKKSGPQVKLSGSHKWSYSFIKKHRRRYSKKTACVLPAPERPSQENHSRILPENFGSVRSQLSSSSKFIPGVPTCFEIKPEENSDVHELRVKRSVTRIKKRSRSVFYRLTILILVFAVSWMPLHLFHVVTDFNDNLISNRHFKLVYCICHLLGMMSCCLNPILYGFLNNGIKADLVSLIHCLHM
Experiment: Radioligand binding to membranes, cloned human Y5 receptor
Conditions: cloned human NPY Y5 receptor, radioligand competition binding; Tables 1-3; read-out: Ki, nM hNPY-5
Structures can show the parent of a compound that is named as a salt.
propertyLabel: Ki (nM)

Solved entries (count: 3):
CS(=O)(=O)NCCOCCNc1nc2c(s1)CCCc1ccc(F)cc1-2 [Example 57]
66
O=S(=O)(NC[C@H]1CC[C@H](Nc2nc3c(s2)CCCc2ccc(F)cc2-3)CC1)C(F)(F)F [Example 41]
30
COc1ccccc1-c1csc(N[C@H]2CC[C@H](CNS(C)(=O)=O)CC2)n1 [Example 91, hydrochloride]
12.3

[A] Cn1cnc(S(=O)(=O)NC[C@H]2CC[C@H](Nc3nc4c(s3)CCCc3ccc(F)cc3-4)CC2)c1 [Example 32]
[B] O=S(=O)(NCCCCCNc1nc2c(s1)CCCc1ccc(F)cc1-2)c1ccc(F)cc1F [Example 12]
[C] CCCN(C=O)[C@H]1CC[C@H](CNc2nc3c(s2)CCOc2ccccc2-3)CC1 [Example 88]
Please produce an ascending ranking of these molecules based on Ki. Present the labels in the sequence the task asks for.
A, B, C

====

Counter-ions that a name gives are not always drawn.
Here, each record is paired with measured melting point data.

CS(=O)(=O)NCC1CCC(Nc2nc3c(s2)COc2ccccc2-3)CC1 (stereo not shown) (as salt: salt) [Example 70]
140 to 144 °C

Data point: COc1cccc2c1OCCc1sc(NC[C@H]3CC[C@H](NS(C)(=O)=O)CC3)nc1-2 (as salt: hydrochloride) [Example 65] ; melting point = 225 to 230 °C

Data point: CS(=O)(=O)NCCCCC(=O)Nc1nc2c(s1)CCCc1ccc(F)cc1-2 [Example 45] ; melting point = 145 to 147 °C

Data point: CCS(=O)(=O)N[C@H]1CC[C@H](CNc2nc3c(s2)CCOc2cc(OC)ccc2-3)CC1 [Example 60] ; melting point = 170 to 172 °C

Data point: O=S(=O)(NCCCCCNc1nc2c(s1)CCCc1ccc(F)cc1-2)c1cccnc1 (as salt: salt) [Example 55] ; melting point = 84 to 86 °C

Data point: COc1ccc2c(c1)CCCc1sc(N[C@H]3CC[C@H](CNS(=O)(=O)N4CCOCC4)CC3)nc1-2 (as salt: hydrochloride) [Example 78] ; melting point = 130 to 132 °C

Data point: COc1ccc2c(c1)-c1nc(NC[C@H]3CC[C@H](NS(C)(=O)=O)CC3)sc1CCO2 (as salt: HCl) [Example 63] ; melting point = 200 to 215 °C

====

Biological target: hNPY-1,2,4 (human Y1, Y2, Y4 receptors)
Assay: Radioligand binding to membranes, cloned human Y1, Y2 and Y4 receptors
Details: one bound given for all three
propertyLabel: Ki

O=S(=O)(NCCCCNc1nc2c(s1)CCCc1ccc(F)cc1-2)c1ccccc1F [Example 7]
> 10000 nM
NS(=O)(=O)N[C@H]1CC[C@H](CNc2nc3c(s2)CCCc2ccc(F)cc2-3)CC1 [Example 44]
> 10000 nM

Here's the next entry for you.
Data point: CCN(CC)S(=O)(=O)NCCCCNc1nc2c(s1)CCCc1ccc(F)cc1-2 [Example 22] ; Ki = > 10000 nM
